// pIC50 lookup, one value per entry
Test system: Hs578T complex spheroid growth, percent test/control
Assay: Anticancer human tumor Hs578T cell line growth inhibition [AhR]
Details: curve of first compound; second compound 3.16 µM
Worth noting: pIC50 values are minus log10 of concentrations stated in mol/L.

COc1cccc2c1C(=O)c1c(O)c3c(c(O)c1C2=O)CC(O)(C(=O)CO)CC3OC1CC(N)C(O)C(C)O1 (configuration not stated) + CC(CO)NC(=O)c1cc(-c2ccc(Cl)cc2)nn(-c2cnn(C)c2)c1=O; 6.40
CC(C)CC(NC(=O)C(Cc1ccccc1)NC(=O)c1cnccn1)B(O)O (configuration not stated) + Cc1cncc(-c2nc(NCCc3c[nH]c4ccccc34)c3ncn(C(C)C)c3n2)c1; 8.42
O=C(C=Cc1cccc(S(=O)(=O)Nc2ccccc2)c1)NO + Cc1ccccc1N=Nc1ccc(NC(=O)c2ccnn2C)c(C)c1; 5.75
COc1ccc([C@@H](O)c2cc(-c3ncnc4cc(N5CCOCC5)ccc34)c(F)cc2Cl)nn1 + Cc1cncc(-c2nc(NCCc3c[nH]c4ccccc34)c3ncn(C(C)C)c3n2)c1; 5.59
CC1COCCN1c1cc(-c2ccnn2C)c2ccnc(-c3ccn[nH]3)c2n1 (configuration not stated) + CC(CO)NC(=O)c1cc(-c2ccc(Cl)cc2)nn(-c2cnn(C)c2)c1=O; 6.42
CCc1c2c(nc3ccc(O)cc13)-c1cc3c(c(=O)n1C2)COC(=O)[C@]3(O)CC + Cc1ccccc1N=Nc1ccc(NC(=O)c2ccnn2C)c(C)c1; 7.41

stdin: Given the compound CC(C)CC(NC(=O)C(Cc1ccccc1)NC(=O)c1cnccn1)B(O)O (configuration not stated) + Cc1ccccc1N=Nc1ccc(NC(=O)c2ccnn2C)c(C)c1 , write its reported pIC50.
stdout: 8.34

###

// IC50 lookup, one value per entry
Tested on: Hs578T complex spheroid growth, percent test/control
Test: Anticancer human tumor Hs578T cell line growth inhibition [AhR]
Conditions: curve of first compound; second compound 1 µM

Reference set, count: 3
COc1cc(C2c3cc4c(cc3C(OC3OC5COC(C)OC5C(O)C3O)C3COC(=O)C23)OCO4)cc(OC)c1O (stereo unspecified) + CC(CO)NC(=O)c1cc(-c2ccc(Cl)cc2)nn(-c2cnn(C)c2)c1=O; > 10000 nM
CC1COCCN1c1cc(-c2ccnn2C)c2ccnc(-c3ccn[nH]3)c2n1 (stereo unspecified) + Cc1cncc(-c2nc(NCCc3c[nH]c4ccccc34)c3ncn(C(C)C)c3n2)c1; 342 nM
CCc1c2c(nc3ccc(O)cc13)-c1cc3c(c(=O)n1C2)COC(=O)[C@]3(O)CC + Cc1cncc(-c2nc(NCCc3c[nH]c4ccccc34)c3ncn(C(C)C)c3n2)c1; 115 nM

stdin: Given the compound Cn1ncnc1C1c2n[nH]c(=O)c3cc(F)cc(c23)NC1c1ccc(F)cc1 (stereo unspecified) + CC(CO)NC(=O)c1cc(-c2ccc(Cl)cc2)nn(-c2cnn(C)c2)c1=O , write its reported IC50.
stdout: > 100 nM

stdin: Given the compound O=C(c1cc(Cc2n[nH]c(=O)c3ccccc23)ccc1F)N1CCN(C(=O)C2CC2)CC1 + Cc1cncc(-c2nc(NCCc3c[nH]c4ccccc34)c3ncn(C(C)C)c3n2)c1 , write its reported IC50.
stdout: > 10000 nM

stdin: Given the compound CC1(C)CCC(CN2CCN(c3ccc(C(=O)NS(=O)(=O)c4ccc(NCC5CCOCC5)c([N+](=O)[O-])c4)c(Oc4cnc5[nH]ccc5c4)c3)CC2)=C(c2ccc(Cl)cc2)C1 + Cc1ccccc1N=Nc1ccc(NC(=O)c2ccnn2C)c(C)c1 , write its reported IC50.
stdout: > 10000 nM

###

Tested on: Hs578T complex spheroid growth, percent test/control
Test: Anticancer human tumor Hs578T cell line growth inhibition [AhR]
Conditions: second compound 0.316 µM; first compound 0.316 µM; stronger effect = lower value
Description: Multicellular complex tumor spheroid response to aryl hydrocarbon receptor antagonists in combination with a variety of drugs and investigational agents in selected tumor cell lines […] Compounds. […] If the clinical Cmax for an agent had not been determined, the highest concentration tested was 10 microM (Table 1). […]
// viability, T/C lookup, one value per entry
Note: unit % is implicit; provide only the numeric part.

Reference set, count: 2
O=C(c1cc(Cc2n[nH]c(=O)c3ccccc23)ccc1F)N1CCN(C(=O)C2CC2)CC1 + Cc1ccccc1N=Nc1ccc(NC(=O)c2ccnn2C)c(C)c1; 100
COc1cccc2c1C(=O)c1c(O)c3c(c(O)c1C2=O)CC(O)(C(=O)CO)CC3OC1CC(N)C(O)C(C)O1 (stereo not drawn) + Cc1ccccc1N=Nc1ccc(NC(=O)c2ccnn2C)c(C)c1; 48.3

stdin: Provide viability, T/C, tested on Hs578T complex spheroid growth, percent test/control, for NS(=O)(=O)OCC1CC(n2ccc3c(NC4CCc5ccccc54)ncnc32)CC1O (stereo not drawn) + Cc1cncc(-c2nc(NCCc3c[nH]c4ccccc34)c3ncn(C(C)C)c3n2)c1 .
stdout: 84.2

###

System: Hs578T complex spheroid growth, percent test/control
Experiment: Anticancer human tumor Hs578T cell line growth inhibition [AhR];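 note: luminescent viability signal as a proxy for spheroid growth; spheroids exposed to agents for one week after three days of growth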
Conditions: curve of first compound; second compound 0.1 µM
// IC50 lookup, one value per entry
Note: unit µM is implicit; provide only the numeric part.

stdin: Given the molecule COc1ccc([C@@H](O)c2cc(-c3ncnc4cc(N5CCOCC5)ccc34)c(F)cc2Cl)nn1 + CC(CO)NC(=O)c1cc(-c2ccc(Cl)cc2)nn(-c2cnn(C)c2)c1=O , write its reported IC50.
stdout: 5.55

stdin: Given the molecule COc1cc(Nc2ncc3c(n2)-c2ccc(Cl)cc2C(c2c(F)cccc2OC)=NC3)ccc1C(=O)O + Cc1ccccc1N=Nc1ccc(NC(=O)c2ccnn2C)c(C)c1 , write its reported IC50.
stdout: 6.12

stdin: Given the molecule NS(=O)(=O)OCC1CC(n2ccc3c(NC4CCc5ccccc54)ncnc32)CC1O (stereo unspecified) + Cc1cncc(-c2nc(NCCc3c[nH]c4ccccc34)c3ncn(C(C)C)c3n2)c1 , write its reported IC50.
stdout: 2.9

###

Tested on: Hs578T complex spheroid growth, percent test/control
Experiment: Anticancer human tumor Hs578T cell line growth inhibition [AhR];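 note: luminescent viability signal as a proxy for spheroid growth; spheroids exposed to agents for one week after three days of growth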
Conditions: second compound 1 µM; first compound 0.000949 µM; stronger effect = lower value
attributeMeasured: viability, T/C (%)
Note: unit % is implicit; provide only the numeric part.

CCc1c2c(nc3ccc(O)cc13)-c1cc3c(c(=O)n1C2)COC(=O)[C@]3(O)CC + Cc1ccccc1N=Nc1ccc(NC(=O)c2ccnn2C)c(C)c1; 72.8

stdin: Given the molecule CCc1c2c(nc3ccc(O)cc13)-c1cc3c(c(=O)n1C2)COC(=O)[C@]3(O)CC + Cc1cncc(-c2nc(NCCc3c[nH]c4ccccc34)c3ncn(C(C)C)c3n2)c1 , write its reported viability, T/C.
stdout: 77.7

stdin: Given the molecule Nc1ncn(C2CC(O)C(CO)S2)c(=O)n1 (centres undefined) + Cc1ccccc1N=Nc1ccc(NC(=O)c2ccnn2C)c(C)c1 , write its reported viability, T/C.
stdout: 106

stdin: Given the molecule CC(C)CC(NC(=O)C(Cc1ccccc1)NC(=O)c1cnccn1)B(O)O (centres undefined) + Cc1cncc(-c2nc(NCCc3c[nH]c4ccccc34)c3ncn(C(C)C)c3n2)c1 , write its reported viability, T/C.
stdout: 97.8

###

Tested on: Hs578T complex spheroid growth, percent test/control
Assay: Anticancer human tumor Hs578T cell line growth inhibition [AhR];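 note: luminescent viability signal as a proxy for spheroid growth; spheroids exposed to agents for one week after three days of growth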
Conditions: second compound 1 µM; first compound 0.0316 µM; stronger effect = lower value
// viability, T/C lookup, one value per entry
Note: unit % is implicit; provide only the numeric part.

CC1(C)CCC(CN2CCN(c3ccc(C(=O)NS(=O)(=O)c4ccc(NCC5CCOCC5)c([N+](=O)[O-])c4)c(Oc4cnc5[nH]ccc5c4)c3)CC2)=C(c2ccc(Cl)cc2)C1 + Cc1cncc(-c2nc(NCCc3c[nH]c4ccccc34)c3ncn(C(C)C)c3n2)c1; 113
CC[C@@]1(O)C(=O)OCc2c1cc1n(c2=O)Cc2cc3c(CN(C)C)c(O)ccc3nc2-1 + Cc1ccccc1N=Nc1ccc(NC(=O)c2ccnn2C)c(C)c1; 71.7

stdin: Provide viability, T/C, tested on Hs578T complex spheroid growth, percent test/control, for O=C(C=Cc1cccc(S(=O)(=O)Nc2ccccc2)c1)NO + CC(CO)NC(=O)c1cc(-c2ccc(Cl)cc2)nn(-c2cnn(C)c2)c1=O .
stdout: 109

###

System: Hs578T complex spheroid growth, percent test/control
Test: Anticancer human tumor Hs578T cell line growth inhibition [AhR];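 note: luminescent viability signal as a proxy for spheroid growth; spheroids exposed to agents for one week after three days of growth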
Conditions: curve of first compound; second compound 1 µM
attributeMeasured: IC50

Reference set, count: 3
O=C(C=Cc1cccc(S(=O)(=O)Nc2ccccc2)c1)NO + Cc1cncc(-c2nc(NCCc3c[nH]c4ccccc34)c3ncn(C(C)C)c3n2)c1; 2330 nM
Nc1ccn(C2OC(CO)C(O)C2(F)F)c(=O)n1 (stereo unspecified) + CC(CO)NC(=O)c1cc(-c2ccc(Cl)cc2)nn(-c2cnn(C)c2)c1=O; > 10000 nM
Nc1ncn(C2CC(O)C(CO)S2)c(=O)n1 (stereo unspecified) + Cc1ccccc1N=Nc1ccc(NC(=O)c2ccnn2C)c(C)c1; > 300 nM

stdin: Provide IC50, tested on Hs578T complex spheroid growth, percent test/control, for COc1cc(Nc2ncc3c(n2)-c2ccc(Cl)cc2C(c2c(F)cccc2OC)=NC3)ccc1C(=O)O + CC(CO)NC(=O)c1cc(-c2ccc(Cl)cc2)nn(-c2cnn(C)c2)c1=O .
stdout: > 10000 nM

stdin: Provide IC50, tested on Hs578T complex spheroid growth, percent test/control, for COc1cc(Nc2ncc3c(n2)-c2ccc(Cl)cc2C(c2c(F)cccc2OC)=NC3)ccc1C(=O)O + Cc1cncc(-c2nc(NCCc3c[nH]c4ccccc34)c3ncn(C(C)C)c3n2)c1 .
stdout: > 10000 nM

stdin: Provide IC50, tested on Hs578T complex spheroid growth, percent test/control, for Nc1ccccc1NC(=O)c1ccc(CNC(=O)OCc2cccnc2)cc1 + Cc1ccccc1N=Nc1ccc(NC(=O)c2ccnn2C)c(C)c1 .
stdout: 1480 nM

The values you see were collected from PubChem BioAssay AID1919010.
